- protocol-notes: label from the status in PepcDB records

item-sequence	protein production
RDITARVQAEENKRRLAEVVEANPDPVLFIQPGGAVTYLNPAARRTLGLGDGQAMPPLAAILSAAVLDSLQREGWDRAEHSGRWNIEARLQPPAGGASVPVSLMLLAHRAASGERFYSLVAHD	failed
MPKKDNFSILLMGIDARPGQSMDKERSDAMVLATFNRKDKSVKLLSIPRDSYVNIPGRGYDKITHAHSLGGRDLSTETVENLLDIPVDYVMEANFSAFKEVVDELGGVPITIKEDYIVRQIKKDTKGKVNLQTGEQTLGGEEALAYVRTRKADTDLKRGERQMEVIKSIINKSKSLTSIPAYDDILDTVGKNVSMNLSLNDAIGLIPFMTSIQTVDTLQLKGSDYQPGKVYYFQLDQENLNEIKQELKQQLDVLEHHHHHH	not failed
EWQHRGYGRELLAEAERIAREEFDAKKMLIISGVGVREYYRKFGYRKDGPYVSKRLDKRYADYKRTNRFDAELNT	failed
MHNKKWDLRIICAHAFTILIWGTAFPAIRMGLESYTPEHLTLLRLLIASFILLLFSFIYKLRLPDLKDIPAIFIFGALGFTIYHIALNYGEKTVNAGSASLIISVTPIVTAILASVFLNEKMKLNGWLGGVISFAGIALISFSQGDAIQLNSGGLFILLAAISESLFFVFQTSYLKKYGFLPFTIYTILSSTVCMLIFLPGVYQEILAAPLEVNLSVIYLGVFPTVLPYIALAYIISRAGASEATSSLYLTPITACFIAWIWLGEVPTLVSIIGGGITILGIVIAHIPVLRKEKHRNLANNQSV	failed
MPSLSVRGSLLLVCALAVTGCASLQSQDQINYAHCRMVGQASKAEKFDVVLQEADLCLEKNQLSQPMQSLVYWLKSDAYASFKRYPEAIAAKEKSIELGPKPDARAVLDLSRLYREAGNPQKALELVQSNLDNNLGEAGKGSGFNMPTYYHLGQTLYDLGRYREAAEAYSTGLLKQPDYAWAFYHRGLAYDKLGQTDDARADFAQFAKLVNQKYVEPQHQAKLAEYKIKLP	failed
MSALVSMNGNNGSTATSARIAAKKPISILVLGVDQGLEGRNDKGNSDTIILVTVNPTTKKATMTSIPRDTLTEILGETSNTSYYMFKVNSAYQFGGSSGSIKTVSAMLNVPINYYVEVNMKALESLVNALGGVDVNVPFSFSYDWCDFKKGKQHLDGRYAIAYARMRYDDPRGDYGRQLRQRQIIQAVVKKGLSVNGLANYQKLLKVFAKYVKTNLTFGDMTSLAINYRSAASNISSGYIQGHDATISGTSLQIASTEELQKWSNKLRKSLGLSPQTLTNQETRQNSLNETYNGVDFSSNETITNYTIYEANSITPRSSDSWLEHHHHHH	not failed
PPLPLVYERIMLKGKGAMHSSTGLAIPASEIIDVMPPELLRFLIARVNPSRHIDFDP	failed

----------
- protocol-notes: label from the status in PepcDB records
experimental-endpoint: protein production

item-sequence	experimental-endpoint	endpoint-result
MIKEWATVVSWQNGQALVSCDVKASCSSCASRAGCGSRVLNKLGPQTTHTIVVPCDEPLVPGQKVELGIAEGSLLSSALLVYMSPLVGLFLIASLFQLLFASDVAALCGAILGGIGGFLIARGYSRKFAARAEWQPIILSVALPPGLVRFETSSEDASQ	protein production	failed
MPIFSFLLFVFISSFTPGPNNFLAMTYANQHGLKRSINFCFGVAFGFFILTSLCSFFNIVLINIIPIIEFPLKILGVAYMLYLAFKIITSKGGAGHNEKNNKNLFTVGIFLQFINPKGILFGLTVVSTFILPYYNSYSSFLLFSLFLGIVGLLSTFSWSLFGSMFQKLLLKHNQLFNIIMAVLLVFSAVSIVIH	protein production	failed

Origin of values: a protein production outcome set (Wang et al. 2014)
